# measurement_target: Bromodomain adjacent to zinc finger domain protein 2B (Homo sapiens) (UniProt Q9UIF8)
# Sequence (Q9UIF8 whole entry, looked up, the tested form may be a part): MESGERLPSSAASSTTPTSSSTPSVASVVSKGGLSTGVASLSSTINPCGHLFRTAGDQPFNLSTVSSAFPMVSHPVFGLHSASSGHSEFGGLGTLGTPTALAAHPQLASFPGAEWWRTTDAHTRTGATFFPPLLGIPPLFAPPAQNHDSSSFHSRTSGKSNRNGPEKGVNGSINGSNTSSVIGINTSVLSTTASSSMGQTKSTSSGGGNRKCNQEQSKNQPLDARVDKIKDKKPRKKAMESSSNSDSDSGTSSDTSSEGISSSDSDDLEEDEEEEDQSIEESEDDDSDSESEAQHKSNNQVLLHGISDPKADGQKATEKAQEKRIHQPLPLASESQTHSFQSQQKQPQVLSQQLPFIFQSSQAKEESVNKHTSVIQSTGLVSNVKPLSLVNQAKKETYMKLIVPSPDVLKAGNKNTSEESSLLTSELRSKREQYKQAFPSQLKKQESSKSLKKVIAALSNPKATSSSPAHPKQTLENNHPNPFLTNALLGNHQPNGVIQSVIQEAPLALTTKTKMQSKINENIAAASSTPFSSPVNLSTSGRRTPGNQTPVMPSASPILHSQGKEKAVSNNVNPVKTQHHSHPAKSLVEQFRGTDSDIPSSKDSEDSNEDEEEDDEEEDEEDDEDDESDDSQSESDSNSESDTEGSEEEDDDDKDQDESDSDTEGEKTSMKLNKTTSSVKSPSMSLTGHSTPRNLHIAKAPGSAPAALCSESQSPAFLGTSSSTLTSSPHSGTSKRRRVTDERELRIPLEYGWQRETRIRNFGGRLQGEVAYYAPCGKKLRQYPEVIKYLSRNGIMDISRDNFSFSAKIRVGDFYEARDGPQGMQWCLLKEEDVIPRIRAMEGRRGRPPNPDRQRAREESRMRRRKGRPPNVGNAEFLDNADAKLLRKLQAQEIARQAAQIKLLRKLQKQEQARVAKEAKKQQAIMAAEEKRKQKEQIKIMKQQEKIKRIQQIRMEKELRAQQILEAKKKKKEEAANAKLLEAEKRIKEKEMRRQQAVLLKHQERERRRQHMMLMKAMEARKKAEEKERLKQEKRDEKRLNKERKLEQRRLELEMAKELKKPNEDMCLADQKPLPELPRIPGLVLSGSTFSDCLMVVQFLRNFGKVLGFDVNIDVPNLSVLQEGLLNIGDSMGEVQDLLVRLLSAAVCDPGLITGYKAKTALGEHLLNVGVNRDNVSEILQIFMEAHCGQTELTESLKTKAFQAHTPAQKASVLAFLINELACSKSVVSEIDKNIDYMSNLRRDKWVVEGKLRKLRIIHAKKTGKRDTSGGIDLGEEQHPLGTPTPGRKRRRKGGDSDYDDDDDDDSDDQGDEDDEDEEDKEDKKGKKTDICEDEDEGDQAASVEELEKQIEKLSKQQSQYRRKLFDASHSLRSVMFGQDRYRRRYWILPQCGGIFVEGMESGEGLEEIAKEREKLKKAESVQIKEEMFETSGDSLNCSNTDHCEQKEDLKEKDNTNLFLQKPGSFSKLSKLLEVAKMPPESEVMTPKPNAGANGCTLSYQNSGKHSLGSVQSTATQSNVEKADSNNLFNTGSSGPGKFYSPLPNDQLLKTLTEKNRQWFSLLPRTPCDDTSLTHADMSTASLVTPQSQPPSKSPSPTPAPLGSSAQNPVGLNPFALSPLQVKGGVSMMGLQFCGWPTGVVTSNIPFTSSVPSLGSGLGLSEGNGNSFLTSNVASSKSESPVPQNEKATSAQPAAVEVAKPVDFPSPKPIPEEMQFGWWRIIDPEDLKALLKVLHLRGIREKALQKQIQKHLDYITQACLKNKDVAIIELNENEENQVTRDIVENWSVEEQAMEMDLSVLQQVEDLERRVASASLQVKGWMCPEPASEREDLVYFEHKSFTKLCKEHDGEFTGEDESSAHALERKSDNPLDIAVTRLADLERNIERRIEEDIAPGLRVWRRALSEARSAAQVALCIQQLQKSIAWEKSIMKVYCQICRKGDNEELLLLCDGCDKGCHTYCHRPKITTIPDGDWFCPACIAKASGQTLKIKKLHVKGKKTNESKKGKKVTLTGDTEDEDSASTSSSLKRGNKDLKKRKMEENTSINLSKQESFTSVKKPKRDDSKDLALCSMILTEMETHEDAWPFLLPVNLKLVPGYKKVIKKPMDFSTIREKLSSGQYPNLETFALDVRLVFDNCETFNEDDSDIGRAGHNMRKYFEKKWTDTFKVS
# method_summary: qHTS Assay for Inhibitors of BAZ2B; further: nearly all actives have a fitted effect of over 60% in size
# run_parameters: AlphaScreen BAZ2B-H3K14Ac peptide displacement; series mostly up to 114 µM
About 16,000 (4.4%) of roughly 360,000 compounds were called active. Inconclusive results (about 9%) are left out. The call rests on the fitted dose curve; in most records, active means well fitted inhibition curve with a large enough effect; inconclusive means small, poorly fitted or top-dose-only effect; inactive means no such curve, though single readings can be large or run the other way. Many of the other results were omitted from the sample, so actives are more common in it than they were.
Hi there, use one of these labels in your reply, thanks! True (active), False (inactive)

1) CCCCN(C)c1nnc(NC(=O)Nc2ccc(Br)c(C)c2)s1; False
2) Cc1cccc(NC(=O)CSc2nnc(CNC(=O)c3cccc(C)c3)n2-c2ccccc2)c1; False
3) COc1cccc(CNC(=O)c2ccc3c(Cl)c4c(nc3c2)CCCC4)c1; False

Incoming: GET /call?item= O=C(CN1C(=O)COc2ccc(S(=O)(=O)N3CCOCC3)cc21)N1CCN(c2cccc(Cl)c2)CC1 returns the recorded outcome of this test.
Outgoing: False

Incoming: GET /call?item= Oc1c(C(c2ccccn2)N2CCOCC2)ccc2cccnc12 (stereo not given) returns the recorded outcome of this test.
Outgoing: True

Incoming: GET /call?item= CCc1ccccc1NS(=O)(=O)c1ccc2nc(-c3ccccc3)[nH]c2c1 returns the recorded outcome of this test.
Outgoing: False

Incoming: GET /call?item= CC(C)c1cc(CN2CCOCC2)cc(C(C)C)c1O returns the recorded outcome of this test.
Outgoing: False

Incoming: GET /call?item= Oc1c(C(c2ccccc2Cl)N2CCOCC2)sc2nc(-c3ccco3)nn12 (stereo not given) returns the recorded outcome of this test.
Outgoing: False

Incoming: GET /call?item= CC(C)(C)c1ccc(C(=O)NCC(c2ccco2)S(=O)(=O)c2ccc(F)cc2)cc1 (stereo not given) returns the recorded outcome of this test.
Outgoing: False

Incoming: GET /call?item= COc1ccc(CNC(=O)C(C)n2nc(C)c3c(C)n(-c4ccccc4)nc3c2=O)c(OC)c1 (stereo not given) returns the recorded outcome of this test.
Outgoing: False

----------
# measurement_target: Bromodomain adjacent to zinc finger domain protein 2B (Homo sapiens) (UniProt Q9UIF8)
# method_summary: qHTS Assay for Inhibitors of BAZ2B; further: nearly all actives have a fitted effect of over 60% in size
# run_parameters: AlphaScreen BAZ2B-H3K14Ac peptide displacement; series mostly up to 114 µM
About 16,000 (4.4%) of roughly 360,000 compounds were called active. About 9% were inconclusive and are not listed. Calls follow the shape of the dose curve; as a rule, active = well fitted inhibition curve with a large enough effect; inconclusive = small, poorly fitted or top-dose-only effect; inactive = no such curve, though single readings can be large or run the other way. This is one part of a sample in which actives are shown more often than they occur.
Hi there, use one of these labels in your reply, thanks! active, inactive

Example cases with answers are listed next.
1. Cc1ccc(Cl)cc1NC(=O)Cc1ccc(-n2c(C)nc3cccnc32)cc1; inactive
2. O=C(NCc1ccccc1Cl)C1=Cc2cc(Br)ccc2OC1; inactive
3. COc1ccc(CNC(=O)Cn2nnc(-c3ccccc3F)n2)cc1; inactive
4. COc1cc2c(cc1OC)C(c1ccccc1Br)NC(=O)C2 (stereo unspecified); inactive
5. CCCCOc1ccc(C(=O)N2CC(=O)Nc3ccc(Br)cc3C2c2ccc(F)cc2)cc1 (stereo unspecified); inactive

Incoming: GET /call?item= Brc1ccccc1C1Nc2cccc3cccc(c23)N1 returns the recorded outcome of this test.
Outgoing: active

Incoming: GET /call?item= Nc1cc(N)nc(SCc2ccc(Cl)cc2)n1 returns the recorded outcome of this test.
Outgoing: inactive

Incoming: GET /call?item= Cn1c(=O)c(C(=O)O)nn(-c2ccccc2)c1=O returns the recorded outcome of this test.
Outgoing: inactive

Incoming: GET /call?item= CCOC(=O)Nc1ccc2c(c1)N(C(=O)CN1CCN3CCCC3C1)c1ccccc1CC2 (stereo unspecified) returns the recorded outcome of this test.
Outgoing: active

Incoming: GET /call?item= COc1ccc(Cl)cc1NC(=O)c1sc2nc3c(cc2c1N)CN(C)CC3 returns the recorded outcome of this test.
Outgoing: inactive

Incoming: GET /call?item= COc1ccc(NC(=O)CSC2=Nc3ccccc3C3=NC(CC(=O)NCc4ccccc4OC)C(=O)N23)cc1Cl (stereo unspecified) returns the recorded outcome of this test.
Outgoing: inactive

----------
# measurement_target: Bromodomain adjacent to zinc finger domain protein 2B (Homo sapiens)
# method_summary: qHTS Assay for Inhibitors of BAZ2B; further: nearly all actives have a fitted effect of over 60% in size
# run_parameters: AlphaScreen BAZ2B-H3K14Ac peptide displacement; series mostly up to 114 µM
# From the text: BAZ2B (bromodomain adjacent to zinc finger domain, 2B) belongs to a family of ubiquitously expressed bromodomain containing proteins, which biological function has not yet been elucidated. […] Yasgar, et al. Compound Management for Quantitative High-Throughput Screening. […] Inglese, et al. Quantitative high-throughput screening: a titration-based approach that efficiently identifies biological activities in large chemical libraries. […]
The whole screen tested about 360,000 compounds, of which about 16,000 (4.4%) were called active. Inconclusive results (about 9%) are left out. The call rests on the fitted dose curve; in most records, active means well fitted inhibition curve with a large enough effect; inconclusive means small, poorly fitted or top-dose-only effect; inactive means no such curve, though single readings can be large or run the other way. What follows is part of a selection rich in actives, with near analogues and random picks from the rest.
Hi there, use one of these labels in your reply, thanks! active, inactive

Incoming: GET /call?item= COc1ccccc1CN1CCC(CNC(=O)c2cnn(-c3ccccc3Cl)c2C2CCN(C(=O)OC(C)(C)C)CC2)CC1 returns the recorded outcome of this test.
Outgoing: inactive

----------
# measurement_target: Bromodomain adjacent to zinc finger domain protein 2B (Homo sapiens) (UniProt Q9UIF8)
# method_summary: qHTS Assay for Inhibitors of BAZ2B; further: nearly all actives have a fitted effect of over 60% in size
# run_parameters: AlphaScreen BAZ2B-H3K14Ac peptide displacement; series mostly up to 114 µM
Out of some 360,000 compounds screened, about 16,000 (4.4%) were called active. Not shown: some 9% with an inconclusive outcome. Calls follow the shape of the dose curve; as a rule, active = well fitted inhibition curve with a large enough effect; inconclusive = small, poorly fitted or top-dose-only effect; inactive = no such curve, though single readings can be large or run the other way. This is one part of a sample in which actives are shown more often than they occur.
Hi there, use one of these labels in your reply, thanks! active, inactive

Example cases with answers are listed next.
1. COc1ccc(CCNc2nc(-c3ccc(Cl)cc3)cc(C(F)(F)F)n2)cc1OC; inactive
2. O=C(CCS(=O)(=O)c1ccc2c(c1)NC(=O)CO2)Nc1cccc(C(F)(F)F)c1; inactive
3. CCN1CCN(CCCCOc2ccccc2F)CC1; active
4. Fc1ccc(C(Nc2ccc(Cl)c(C(F)(F)F)c2)c2nnc(-c3ccccc3)o2)cc1 (stereo not given); inactive

Incoming: GET /call?item= Cc1ccc(-c2cc(C(F)(F)F)c(C#N)c(SCC(=O)Nc3ccccc3)n2)cc1 returns the recorded outcome of this test.
Outgoing: inactive

----------
# measurement_target: Bromodomain adjacent to zinc finger domain protein 2B (Homo sapiens)
# method_summary: qHTS Assay for Inhibitors of BAZ2B; further: nearly all actives have a fitted effect of over 60% in size
# run_parameters: AlphaScreen BAZ2B-H3K14Ac peptide displacement; series mostly up to 114 µM
# Excerpt: BAZ2B (bromodomain adjacent to zinc finger domain, 2B) belongs to a family of ubiquitously expressed bromodomain containing proteins, which biological function has not yet been elucidated. […] Yasgar, et al. Compound Management for Quantitative High-Throughput Screening. […] Inglese, et al. Quantitative high-throughput screening: a titration-based approach that efficiently identifies biological activities in large chemical libraries. […]
Among all 360,000 compounds or so, about 16,000 (4.4%) were called active. Inconclusive results (about 9%) are left out. The call rests on the fitted dose curve; in most records, active means well fitted inhibition curve with a large enough effect; inconclusive means small, poorly fitted or top-dose-only effect; inactive means no such curve, though single readings can be large or run the other way. Only a selection was taken, and actives are over-represented in it overall.
Hi there, use one of these labels in your reply, thanks! TRUE (active), FALSE (inactive)

Example cases with answers are listed next.
1. COc1ccc2cc(CNc3ccc(OC)c(OC)c3)c(=O)n(CC(=O)Nc3ccccc3F)c2c1; FALSE
2. COc1ccc(C(F)(F)F)cc1NC(=O)c1sc2nc(-c3cccs3)ccc2c1N; FALSE
3. Cc1cccc(C(CC(=O)NCC2(c3ccccc3)CCCC2)c2ccccc2)c1O (stereo not given); FALSE
4. COC(=O)C1=CN(Cc2ccc(OC)cc2)C=C(C(=O)OC)C1c1ccc(O)c(OC)c1; FALSE
5. NC(=O)C1=C[C@H](c2csc3ccccc23)C[C@H](OCc2ccc(CO)cc2)O1; FALSE
6. O=C(O)C1=C[C@H](c2cccs2)C[C@H](OCCCCO)O1; TRUE
7. CCOC(=O)CCc1c(C)c2ccc(OCc3nn[nH]n3)c(C)c2oc1=O; FALSE
8. CC(C)(C)C1C/C(=C/c2ccco2)C(=O)/C(=C/c2ccco2)C1 (stereo not given); TRUE
9. Cc1c(CCC(=O)O)c(=O)oc2c(C)c(OCc3ccccc3Cl)ccc12; TRUE

Turning now to a further compound:
Incoming: GET /call?item= CCOc1ccc(CCNC(=O)CN(c2ccc(C)cc2)S(=O)(=O)N(C)C)cc1OCC returns the recorded outcome of this test.
Outgoing: FALSE

----------
# measurement_target: Bromodomain adjacent to zinc finger domain protein 2B (Homo sapiens) (UniProt Q9UIF8)
# method_summary: qHTS Assay for Inhibitors of BAZ2B; further: nearly all actives have a fitted effect of over 60% in size
# run_parameters: AlphaScreen BAZ2B-H3K14Ac peptide displacement; series mostly up to 114 µM
# Text: BAZ2B (bromodomain adjacent to zinc finger domain, 2B) belongs to a family of ubiquitously expressed bromodomain containing proteins, which biological function has not yet been elucidated. […] Yasgar, et al. Compound Management for Quantitative High-Throughput Screening. […] Inglese, et al. Quantitative high-throughput screening: a titration-based approach that efficiently identifies biological activities in large chemical libraries. […]
Hit rate of the full screen: of about 360,000 compounds, about 16,000 (4.4%) were called active. Not shown: some 9% with an inconclusive outcome. Calls follow the shape of the dose curve; as a rule, active = well fitted inhibition curve with a large enough effect; inconclusive = small, poorly fitted or top-dose-only effect; inactive = no such curve, though single readings can be large or run the other way. The entries come from a sample that favours actives as a whole.
Hi there, use one of these labels in your reply, thanks! 1 (yes) = active, 0 (no) = inactive

Example cases with answers are listed next.
1) O=c1[nH]c(NCCO)nnc1Cc1ccc(Cl)cc1; 0 (no)
2) COc1ccc(Cl)cc1NC(=O)CCC(=O)c1ccc(C)cc1; 0 (no)
3) Cc1oc2cc([N+](=O)[O-])c(O)c([N+](=O)[O-])c2c1C(=O)c1ccc(Br)cc1; 1 (yes)
4) COc1ccc(Cl)cc1NC(=O)CN(C)CC(=O)Nc1ccc2c(c1)OCO2; 0 (no)
5) CC(=O)NCC(=O)N1CCCC(C(=O)c2ccc3c4c(cccc24)CC3)C1 (stereo not given); 0 (no)
6) COc1ccc2c(Sc3ccc(C)cc3)c(C(=O)NC(C)c3ccccc3)[nH]c2c1 (stereo not given); 0 (no)

Incoming: GET /call?item= Cn1c(=O)oc2cc(S(=O)(=O)CCC(=O)NCCc3ccc(Cl)cc3)ccc21 returns the recorded outcome of this test.
Outgoing: 0 (no)
